- STUDY_SYSTEM: human NTCP (Homo sapiens, UniProt Q14973)
- Sequence (Q14973 1-349): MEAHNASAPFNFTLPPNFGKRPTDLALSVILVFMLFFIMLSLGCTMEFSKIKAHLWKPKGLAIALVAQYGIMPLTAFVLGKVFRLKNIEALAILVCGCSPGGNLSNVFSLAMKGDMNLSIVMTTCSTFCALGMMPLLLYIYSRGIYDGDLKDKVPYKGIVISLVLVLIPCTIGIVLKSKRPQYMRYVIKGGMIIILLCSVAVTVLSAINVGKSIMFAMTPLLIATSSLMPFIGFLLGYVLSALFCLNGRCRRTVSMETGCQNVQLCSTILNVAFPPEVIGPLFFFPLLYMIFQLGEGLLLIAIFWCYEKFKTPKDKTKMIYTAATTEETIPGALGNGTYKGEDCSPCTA
- RUN_DESCRIPTION: Screening taurocholate uptake assay (96-well, [14C]taurocholate, 10 µM drug)
- RUN_PARAMETERS: screening taurocholate uptake, 10 µM drug
Where a name gives a salt, the structure may show the parent alone.
Please assign n whenever B-score functional assay is at or above -0.01, and y whenever it is below.

INSERT INTO results (compound, label_class) VALUES
  ('CC(=O)CCCCn1c(=O)c2c(ncn2C)n(C)c1=O', 'y'),
  ('CCCCCC[C@H]1C(=O)O[C@H](C)[C@H](NC(=O)c2cccc(NC=O)c2O)C(=O)O[C@@H](C)[C@@H]1OC(=O)CC(C)C [Antimycin A]', 'y'),
  ('CN(C)CCOc1ccc(/C(=C(/CCCl)c2ccccc2)c2ccccc2)cc1', 'n'),
  ('CC(C)C[C@H](NC(=O)[C@@H](O)[C@H](N)Cc1ccccc1)C(=O)O', 'n'),
  ('Nc1nc(Cl)nc2c1ncn2[C@H]1C[C@H](O)[C@@H](CO)O1', 'y'),
  ('CCN(CC)CCOC(=O)C(c1ccccc1)C1CCCCC1 (centres unmarked) [Drofenine hydrochloride]', 'y'),
  ('CC(C)NCC(O)COc1ccc(CCOCC2CC2)cc1 (centres unmarked) [Betaxolol hydrochloride]', 'n'),
  ('CO[C@@]1(NC(=O)C(C(=O)O)c2ccc(O)cc2)C(=O)N2C(C(=O)O)=C(CSc3nnnn3C)CO[C@@H]21 (some centres unmarked) [Moxalactam disodium salt]', 'y'),
  ('CC[N+](CC)(CC(=O)Nc1c(C)cccc1C)Cc1ccccc1 [Denatonium benzoate]', 'y'),
  ('C[C@H](O)C(=O)Nc1c(I)c(C(=O)NC(CO)CO)c(I)c(C(=O)NC(CO)CO)c1I', 'y'),
  ('CO[C@]12C[C@@H](COC(=O)c3cncc(Br)c3)CN(C)[C@@H]1Cc1cn(C)c3cccc2c13', 'y'),
  ('O=C1c2c(O)cccc2Cc2cccc(O)c21', 'n'),
  ('O=c1[nH]c(=O)n([C@H]2C[C@H](O)[C@@H](CO)O2)cc1I', 'y'),
  ('[H]/N=C(/N)N/C(=N/[H])NCCc1ccccc1 [Phenformin hydrochloride]', 'n'),
  ('CC(C)(C(=O)O)c1ccc(C(O)CCCN2CCC(C(O)(c3ccccc3)c3ccccc3)CC2)cc1 (centres unmarked) [Fexofenadine HCl]', 'y'),
  ('O=C(COc1ccc(Cl)cc1)N1CCN(Cc2ccc3c(c2)OCO3)CC1 [Fipexide hydrochloride]', 'y'),
  ('O=C(CCCN1CCC2(CC1)C(=O)NCN2c1ccccc1)c1ccc(F)cc1', 'y');
